# target-or-test-system: F protein of RSV (Long strain) (RSV (Long strain), UniProt P12568 26-574)
# Sequence (P12568 26-574): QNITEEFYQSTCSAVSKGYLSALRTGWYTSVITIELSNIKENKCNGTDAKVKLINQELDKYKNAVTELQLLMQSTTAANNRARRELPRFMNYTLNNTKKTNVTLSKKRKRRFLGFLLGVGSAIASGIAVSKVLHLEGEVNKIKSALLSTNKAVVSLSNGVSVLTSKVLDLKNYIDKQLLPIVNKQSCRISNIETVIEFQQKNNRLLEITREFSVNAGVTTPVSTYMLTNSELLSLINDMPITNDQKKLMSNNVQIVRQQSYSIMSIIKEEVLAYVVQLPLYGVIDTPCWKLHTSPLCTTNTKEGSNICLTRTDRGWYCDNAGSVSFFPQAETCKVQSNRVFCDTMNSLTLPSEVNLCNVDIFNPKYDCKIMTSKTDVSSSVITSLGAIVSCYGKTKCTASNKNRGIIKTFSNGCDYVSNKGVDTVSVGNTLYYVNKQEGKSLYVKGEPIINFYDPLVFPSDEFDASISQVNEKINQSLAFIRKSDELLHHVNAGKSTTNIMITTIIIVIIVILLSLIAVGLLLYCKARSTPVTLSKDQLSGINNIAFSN
# measurement-description: cell-based or functional assay

binder: A8c7 Fab (Fab, V domains shown) VH: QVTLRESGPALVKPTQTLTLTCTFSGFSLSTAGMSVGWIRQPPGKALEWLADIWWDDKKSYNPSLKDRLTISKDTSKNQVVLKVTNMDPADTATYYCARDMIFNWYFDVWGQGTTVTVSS VL: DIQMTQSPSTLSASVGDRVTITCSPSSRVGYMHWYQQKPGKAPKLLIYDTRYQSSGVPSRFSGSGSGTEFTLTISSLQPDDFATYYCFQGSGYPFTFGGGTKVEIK
display-unit: µg/mL
Mean IC50 (Control): 0.157
--
binder: P12f4 IgG (antibody, V domains shown) VH: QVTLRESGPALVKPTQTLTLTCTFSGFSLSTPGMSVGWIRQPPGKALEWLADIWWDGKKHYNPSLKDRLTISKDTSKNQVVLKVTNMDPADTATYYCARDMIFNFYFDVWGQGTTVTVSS VL: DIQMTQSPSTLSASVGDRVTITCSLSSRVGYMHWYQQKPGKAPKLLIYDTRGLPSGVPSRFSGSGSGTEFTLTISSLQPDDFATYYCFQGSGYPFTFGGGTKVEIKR
display-unit: µg/mL
Mean IC50 (Control): 0.0235
--
binder: A1e9 IgG (antibody, V domains shown, also called Ale9) VH: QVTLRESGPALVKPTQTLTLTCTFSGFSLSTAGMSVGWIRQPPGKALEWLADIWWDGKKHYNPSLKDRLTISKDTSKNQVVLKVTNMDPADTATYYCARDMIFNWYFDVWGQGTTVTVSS VL: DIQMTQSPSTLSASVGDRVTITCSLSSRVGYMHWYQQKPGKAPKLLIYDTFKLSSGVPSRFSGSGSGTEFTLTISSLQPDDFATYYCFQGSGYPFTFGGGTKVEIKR
display-unit: µg/mL
Mean IC50 (Control): 0.0645
--
binder: A8c7 IgG (antibody, V domains shown) VH: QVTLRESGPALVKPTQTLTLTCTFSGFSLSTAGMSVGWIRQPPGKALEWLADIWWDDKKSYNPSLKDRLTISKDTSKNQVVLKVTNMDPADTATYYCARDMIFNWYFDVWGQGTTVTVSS VL: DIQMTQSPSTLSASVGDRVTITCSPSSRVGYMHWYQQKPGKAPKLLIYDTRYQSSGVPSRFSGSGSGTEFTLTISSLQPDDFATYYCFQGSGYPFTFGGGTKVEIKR
display-unit: µg/mL
Mean IC50 (Control): 0.0383
--
binder: A13c4 Fab (Fab, V domains shown) VH: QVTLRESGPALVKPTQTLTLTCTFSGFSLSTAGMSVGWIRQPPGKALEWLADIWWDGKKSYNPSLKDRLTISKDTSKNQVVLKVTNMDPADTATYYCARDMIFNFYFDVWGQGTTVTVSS VL: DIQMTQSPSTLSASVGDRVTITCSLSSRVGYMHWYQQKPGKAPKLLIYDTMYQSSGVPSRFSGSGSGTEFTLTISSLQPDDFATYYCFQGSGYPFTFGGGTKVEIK
display-unit: µg/mL
Mean IC50 (Control): 0.0258

The measured values listed here are drawn from patent US20110158985A1.
